Residues, ends and D or L forms follow the SMILES beside them.
Attribute: melting point

Example entries begin here.
CC[C@H](NC(=O)[C@H](C)NC(=O)Cc1ccccc1)C(=O)OC [Example 208] (HELM PEPTIDE1{[O=C(Cc1ccccc1)[*:2]].A.[Abu].[CO[*:1]]}$$$$V2.0) :: 120 °C
CCOC(=O)C(NC(=O)[C@H](C)NC(=O)Cc1cc(F)cc(F)c1)c1cccnc1 (stereo partly drawn) :: 146 to 157 °C
COC(=O)[C@H](CCc1ccccc1)NC(=O)[C@H](C)NC(=O)Cc1cc(F)cc(F)c1 :: 147 to 149.5 °C
CC(C)(C)OC(=O)[C@@H](NC(=O)[C@@H](NC(=O)Cc1cc(F)cc(F)c1)c1ccccc1)c1ccccc1 :: 185 °C
COC(=O)C(NC(=O)[C@H](C)NC(=O)Cc1cc(F)cc(F)c1)c1cc2cc(Cl)ccc2s1 (stereo partly drawn) :: 189 to 190 °C
COC(=O)[C@@H](NC(=O)[C@H](C)NC(=O)[C@H](C)NC(=O)Cc1cc(F)cc(F)c1)c1ccccc1 :: 243 to 245 °C
COC(=O)[C@@H](NC(=O)[C@H](C)NC(=O)Cc1cc(F)cc(F)c1)c1ccc2cc(OC)ccc2c1 :: 177 to 178 °C
CC[C@H](C)[C@H](NC(=O)CC(C)C)C(=O)N[C@@H](C)C(=O)OCC(C)C :: 142 to 146 °C

Ask: Identify melting point associated with the compound C[C@H](NC(=O)Cc1cc(F)cc(F)c1)C(=O)N[C@@H](Cc1ccccc1)C(=O)OCc1ccccc1
Result: 170 to 171 °C

Ask: Identify melting point associated with the compound COC(=O)[C@H](Cc1cscn1)NC(=O)[C@H](C)NC(=O)Cc1cc(F)cc(F)c1
Result: 136 to 139 °C

These data points were gathered from patent US6476263B1.
